test: MM1S myeloma cell viability, profiling panel, resazurin fluorescence, basal, 24 h, PK04 Diversity Set (AID 1174); conditions: called active from +8 up or from −8 down;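 also: MM1S multiple myeloma cell line; test concentration not given here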
Active and inactive are the calls of the source.
Your reply should match one of these outcome classes. active, inactive

Exam item: Which outcome was entered for the molecule [N-]=[N+]=NCc1ccccc1C[C@]1(C(=O)NCC(O)CO)N=C(c2ccc(OCCCO)cc2)O[C@H]1c1ccccc1N=[N+]=[N-] (some centres not stated) in this test?
Marked response: inactive

Exam item: Which outcome was entered for the molecule `COC(=O)[C@@]1(Cc2ccc(OC)cc2)[C@H]2c3cc(C(=O)N(C)C)n(Cc4c(OC)[nH]cc(C)c4=O)c3C[C@H]2CN1C(=O)c1ccccc1` in this test?
Marked response: inactive

Exam item: Which outcome was entered for the molecule COC(=O)C1=CC(CCCO)=CC(C2CC2)N(Cc2sc3ccccc3c2Cl)C=C1C(=O)OC (configuration not stated) in this test?
Marked response: inactive

Exam item: Which outcome was entered for the molecule `O=C1C=CC(=O)[C@@H]2CC(COc3ccccc3)=C3[C@@H](CCc4ccccc4)OB(O)C[C@@H]3[C@H]12` in this test?
Marked response: inactive

Exam item: Which outcome was entered for the molecule `O=C1N(CCS(=O)(=O)c2ccccc2)Cc2ccccc2[C@H]2OC(c3ccc(OCCCO)cc3)=N[C@@]12CCS(=O)(=O)c1ccccc1` in this test?
Marked response: inactive

Exam item: Which outcome was entered for the molecule `O=C1N(CCS(=O)(=O)c2ccccc2)c2ccccc2C[C@@]12COC(c1ccc(OCCCO)cc1)=N2` in this test?
Marked response: inactive

Exam item: Which outcome was entered for the molecule CC(C)(C)N1CC=CC23O[C@@H]4/C=C\CCCOC(=O)C4[C@H]2C(=O)N(CCO)[C@@H]3C1=O (some centres not stated) in this test?
Marked response: inactive

Exam item: Which outcome was entered for the molecule `CC(C)CNC(=O)[C@@]1(c2ccc([N+](=O)[O-])cc2)CC(=O)N(CC23CC4CC(CC(C4)C2)C3)[C@@H]1c1ccc(CO)cc1I` in this test?
Marked response: inactive

Exam item: Which outcome was entered for the molecule `O=C1[C@]2(CO)C=C(Br)[C@@H](C[C@@H]2c2ccccc2)[C@@]12CO2` in this test?
Marked response: inactive

Exam item: Which outcome was entered for the molecule `COc1ccc(C#Cc2ccc3c(c2)[C@]2(C(=O)N3)[C@H](c3ccc(O)cc3)N3[C@H](c4ccccc4)[C@H](c4ccccc4)OC(=O)[C@H]3[C@@H]2C(=O)NC[C@H](O)c2ccccc2)cc1` in this test?
Marked response: inactive

Exam item: Which outcome was entered for the molecule `CC(C)N1C(=O)[C@@]2(c3ccc([N+](=O)[O-])cc3)CC(=O)N(CC34CC5CC(CC(C5)C3)C4)[C@@H]2c2ccc(CO)cc21` in this test?
Marked response: inactive

Exam item: Which outcome was entered for the molecule `COCC(=C=CC[C@H](O)c1ccc(OCCO)cc1)C[C@H](O)c1cc(Cl)cc(Cl)c1O` in this test?
Marked response: inactive

Exam item: Which outcome was entered for the molecule `COCCOC(=O)N1C(=O)[C@@]2(c3cc(C#CCC(C(=O)OC)C(=O)OC)ccc31)[C@H](C(=O)N1CCCCCCC1)[C@H]1C(=O)O[C@H](c3ccccc3)[C@H](c3ccccc3)N1[C@@H]2c1ccc(OCCO)cc1` in this test?
Marked response: inactive

Exam item: Which outcome was entered for the molecule `[N-]=[N+]=Nc1ccccc1[C@H]1OC(c2ccc(OCCCO)cc2)=N[C@@]1(CCS(=O)(=O)c1ccccc1)C(=O)O` in this test?
Marked response: inactive

Exam item: Which outcome was entered for the molecule `CCCN1C(=O)[C@@]2(CCC(=O)OC(C)(C)C)N=C(c3ccc(OCCCO)cc3)O[C@H]2c2ccccc21` in this test?
Marked response: inactive

Exam item: Which outcome was entered for the molecule `[N-]=[N+]=NCc1ccccc1[C@H]1OC(c2ccc(OCCCO)cc2)=N[C@@]1(CCS(=O)(=O)c1ccccc1)C(=O)N1CCOCC1` in this test?
Marked response: inactive

Exam item: Which outcome was entered for the molecule `[N-]=[N+]=Nc1ccccc1C[C@]1(C(=O)NCCN2CCOCC2)N=C(c2ccc(OCCCO)cc2)O[C@H]1c1ccccc1` in this test?
Marked response: inactive

Exam item: Which outcome was entered for the molecule `COCCOC(=O)N1C(=O)[C@@]2(c3cc(C#CCNC(N)=O)ccc31)[C@H](C(=O)N1CCc3cc(OC)c(OC)cc3C1)[C@H]1C(=O)O[C@H](c3ccccc3)[C@H](c3ccccc3)N1[C@@H]2c1ccc(OCCO)cc1` in this test?
Marked response: inactive

Exam item: Which outcome was entered for the molecule `COc1ccc(C(=O)Nc2cccc(CN3C(=O)[C@@]4(O[C@@H](CCn5cc(CCO)nn5)[C@H]([Si](C)(C)c5ccc(OC)cc5)[C@H]4C)c4ccccc43)c2)cc1` in this test?
Marked response: active

Exam item: Which outcome was entered for the molecule `CN(C)CCCNC(=O)[C@@]1(Cc2ccccc2I)c2ccccc2C(=O)N(Cc2ccccc2C(F)(F)F)[C@H]1c1ccc(CO)cc1` in this test?
Marked response: inactive

Exam item: Which outcome was entered for the molecule `COCCOC(=O)N1C(=O)[C@@]2(c3cc(C#CCC(C(=O)OC)C(=O)OC)ccc31)[C@H](c1ccc(O)cc1)N1[C@H](c3ccccc3)[C@H](c3ccccc3)OC(=O)[C@H]1[C@@H]2C(N)=O` in this test?
Marked response: inactive

Exam item: Which outcome was entered for the molecule `COCCOC(=O)N1C(=O)[C@@]2(c3ccccc31)[C@H](C(=O)Nc1nc3ccccc3s1)[C@H]1C(=O)O[C@H](c3ccccc3)[C@H](c3ccccc3)N1[C@@H]2c1ccc(OCCO)cc1` in this test?
Marked response: inactive

Exam item: Which outcome was entered for the molecule `COc1ccc(CCNC(=O)[C@@]2(c3ccc([N+](=O)[O-])cc3)CC(=O)N(CC34CC5CC(CC(C5)C3)C4)[C@@H]2c2ccc(CO)cc2)cc1` in this test?
Marked response: inactive

Exam item: Which outcome was entered for the molecule `COc1ccc(C#Cc2ccc3c(c2)[C@]2(C(=O)N3)[C@H](c3ccc(O)cc3)N3[C@H](c4ccccc4)[C@H](c4ccccc4)OC(=O)[C@H]3[C@@H]2C(=O)N2CCCCCCC2)cc1` in this test?
Marked response: inactive

Exam item: Which outcome was entered for the molecule `CC(C)N1C(=O)c2ccccc2[C@@H](C(=O)NCCCN(C)C)[C@@H]1c1ccc(CO)cc1` in this test?
Marked response: inactive

Exam item: Which outcome was entered for the molecule `CCCNC(=O)[C@@]1(c2ccc([N+](=O)[O-])cc2)CC(=O)N(CC23CC4CC(CC(C4)C2)C3)[C@@H]1c1ccc(CO)cc1` in this test?
Marked response: inactive

Exam item: Which outcome was entered for the molecule `C=C(C(=O)CC[C@H](OC(C)=O)c1ccc(OCCO)cc1)C(C)C` in this test?
Marked response: inactive

---

test system: Sonic hedgehog protein (Shh); assay: small-molecule binders of Shh protein, primary screen, biochemical, small-molecule microarray, 635/667 nm fluorescence (AID 1151); conditions: small-molecule microarray binding, 635 nm fluorescence; higher = more signal;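 also: Shh protein binding to compounds spotted on small-molecule microarray slides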
Respond with Criterion met for composite z-score values of 0.8 and above, Criterion not met for values below.

Exam item: Is composite z-score for `Cc1ccc(S[C@]2(C(=O)NCC(C)C)CC(=O)N(Cc3ccccc3)[C@@H]2c2ccc(CO)cc2I)cc1` at or above 0.8?
Marked response: Criterion met

Exam item: Is composite z-score for O=C1OCC=C[C@H]2OC34C=CCN(c5ccc(Cl)cc5)C(=O)[C@H]3N(CCCCCCO)C(=O)[C@@H]4[C@@H]12 (stereo not given in full) at or above 0.8?
Marked response: Criterion not met

Exam item: Is composite z-score for `CC(C)C[C@@H]1NC(=O)[C@H]2C[C@@H](C(=O)NCCCCCNC(=O)CS)[C@@H](c3cccc(OCCO)c3)N2C1=O` at or above 0.8?
Marked response: Criterion met

Exam item: Is composite z-score for `O=C1O[C@@H](c2ccccc2)[C@@H](c2ccccc2)N2[C@@H](c3ccc(O)cc3)[C@]3(C(=O)Nc4ccc(C#CC5=CCCCC5)cc43)[C@@H](C(=O)O)[C@H]12` at or above 0.8?
Marked response: Criterion not met

Exam item: Is composite z-score for `CCOC(=O)C[C@H]1[C@H](OC(=O)Cc2ccc3c(c2)OCO3)[C@@H](NC(=O)c2ccc(-c3ccccc3)cc2)c2cc(OCCCO)ccc2N1C(=O)c1ccccc1` at or above 0.8?
Marked response: Criterion not met

Exam item: Is composite z-score for `CC(C)N1C(=O)[C@@]2(c3ccc([N+](=O)[O-])cc3)CC(=O)N(CC34CC5CC(CC(C5)C3)C4)[C@@H]2c2ccc(CO)cc21` at or above 0.8?
Marked response: Criterion not met

Exam item: Is composite z-score for CCCCC(O)C1C=CC2C(=O)N(C3CCCCC3)C(=O)C2N1Nc1ccc(OC)cc1 (stereo not given) at or above 0.8?
Marked response: Criterion not met

Exam item: Is composite z-score for `Cc1ccc([C@H]2C(C(=O)O)=C[C@@H](C)N2S(=O)(=O)c2ccc(C)cc2)cc1` at or above 0.8?
Marked response: Criterion not met

Exam item: Is composite z-score for CS(=O)(=O)CCOC(=O)C1=CC(CCCO)=CC(c2cccs2)N(Cc2cc3c(cc2Br)OCO3)C=C1C(=O)OCCS(C)(=O)=O (stereo not given) at or above 0.8?
Marked response: Criterion not met

Exam item: Is composite z-score for `COc1ccc(CCNC(=O)[C@@]2(Sc3ccc(C)cc3)CC(=O)N(Cc3ccccc3Cl)[C@@H]2c2ccc(CO)cc2I)cc1` at or above 0.8?
Marked response: Criterion not met

Exam item: Is composite z-score for `C[N+](C)(C)CCCCCCNC(=O)[C@H]1C[C@H]2C(=O)N3CCC[C@H]3C(=O)N2[C@H]1c1ccc(O)cc1` at or above 0.8?
Marked response: Criterion met

Exam item: Is composite z-score for `CCCCC=C[C@@H](NC(=O)c1cccs1)c1ccccc1` at or above 0.8?
Marked response: Criterion not met

Exam item: Is composite z-score for `Cc1ccc(F)cc1S(=O)(=O)N[C@@H]1CCN(Cc2ccc(-c3ccccc3)cc2)C1` at or above 0.8?
Marked response: Criterion met

Exam item: Is composite z-score for `COC(=O)[C@@]1(Cc2ccc(OC)cc2)[C@H]2c3cc(C(=O)N4CCCC4)n(Cc4cc(F)cc5c4OCOC5)c3C[C@H]2CN1C(=O)c1ccccc1` at or above 0.8?
Marked response: Criterion not met

Exam item: Is composite z-score for COc1cc(C(O)C2C=CC3C(=O)N(c4ccccc4)C(=O)C3N2Nc2ccc(C#N)cc2)cc(OC)c1OC (stereo not given) at or above 0.8?
Marked response: Criterion not met
